target: GST-Mdm2(400–491) (Homo sapiens); assay: Isothermal titration calorimetry; details: 2 mM ATP titrated into 100 nM GST-Mdm2(400–491), single-site isotherm
Sequence (Q00987 400-491): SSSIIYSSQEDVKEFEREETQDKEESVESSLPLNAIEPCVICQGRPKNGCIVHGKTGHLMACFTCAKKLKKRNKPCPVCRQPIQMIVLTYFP
Value Kind: Kd (µM)
Give bare numbers, in µM.

Q: Find the measured Kd: item Nc1ncnc2c1ncn2[C@@H]1O[C@H](COP(=O)(O)OP(=O)(O)OP(=O)(O)O)[C@@H](O)[C@H]1O [ATP, adenosine triphosphate] , target or system GST-Mdm2(400–491) (Homo sapiens).
Ans: 4
